- target.under.test: T1, CDH6 on OVCAR3 cells (human, UniProt P55285 54-790)
- T1 construct: whole, on cells; also called CDH6 positive cells OVCAR3; CDH6 high-expression cell strain
- T1 sequence (looked up): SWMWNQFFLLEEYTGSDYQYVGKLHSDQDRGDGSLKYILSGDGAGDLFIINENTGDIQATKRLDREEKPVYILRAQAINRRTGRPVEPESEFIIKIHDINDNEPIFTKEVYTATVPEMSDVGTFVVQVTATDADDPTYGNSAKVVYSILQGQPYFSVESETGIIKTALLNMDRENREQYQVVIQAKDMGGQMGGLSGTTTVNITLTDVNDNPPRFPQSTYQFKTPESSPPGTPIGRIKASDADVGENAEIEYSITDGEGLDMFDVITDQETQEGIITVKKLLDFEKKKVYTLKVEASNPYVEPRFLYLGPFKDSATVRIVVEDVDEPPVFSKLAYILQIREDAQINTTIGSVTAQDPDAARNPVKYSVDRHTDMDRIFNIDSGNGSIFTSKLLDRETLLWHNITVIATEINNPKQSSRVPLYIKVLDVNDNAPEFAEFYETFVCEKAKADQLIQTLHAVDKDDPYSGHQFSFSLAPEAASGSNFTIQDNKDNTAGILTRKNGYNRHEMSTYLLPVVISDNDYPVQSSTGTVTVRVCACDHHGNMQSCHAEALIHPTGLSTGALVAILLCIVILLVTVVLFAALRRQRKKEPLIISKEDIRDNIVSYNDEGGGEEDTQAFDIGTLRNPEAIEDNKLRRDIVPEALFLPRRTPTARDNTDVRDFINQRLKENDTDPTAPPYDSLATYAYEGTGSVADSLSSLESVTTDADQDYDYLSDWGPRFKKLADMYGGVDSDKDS
- assay: flow cytometry (FACS) on OVCAR3 cells, Alexa Fluor 647 anti-human Fc secondary antibody, MFI, four-parameter fit
For each of the binders below, state its EC50.
Unit nM implied. Number only.

State its EC50: ADC-L1-14-P1-3 (antibody, human IgG1, kappa, V domains shown, drug-linker L1-14-P1 on cysteine thiols after TCEP reduction; positions not given; DAR 8.5 for the whole conjugate, Antibody-drug conjugate) VH: EVQLVQSGAEVKKPGASVKVSCKASGYTFTRNFMHWVRQAPGQGLEWMGWIYPGDGETEYAQKFQGRVTITADTSTSTAYMELSSLRSEDTAVYYCARGVYGGFAGGYFDFWGQGTLVTVSS VL: DIQMTQSPSSLSASVGDRVTITCKASQNIYKNLAWYQQKPGKAPKLLIYDANTLQTGVPSRFSGSGSGSDFTLTISSLQPEDFATYFCQQYYSGWAFGQGTKVEIKR
0.49

State its EC50: ADC-L1-19-P1-6 (antibody, human IgG1, kappa, V domains shown, drug-linker L1-19-P1 on cysteine thiols after TCEP reduction; positions not given; DAR 8.0 for the whole conjugate, Antibody-drug conjugate) VH: EVQLVQSGAEVKKPGASVKVSCKASGYTFTDYYMAWVRQAPGQGLEWMGYIFPNSGGTDYSQKFKGRVTLTVDKSTSTVYMELSSLRSEDTAVYYCARELGADYGDYYAMDHWGQGTTVTVSS VL: DIQMTQSPSSLSASVGDRVTITCRASENIDSYLAWYQQKPGKSPKLLVYSATLLADGVPSRFSGSGSGTDYTLTISSLQPEDFATYYCQHYYRTPPTFGQGTKLEIKR
0.8
